- Test system: 324938-238-R-J1-PDC complex spheroids viability
- METHOD_SUMMARY: Anticancer human tumor 324938-238-R-J1-PDC patient-derived bladder carcinoma cell line growth inhibition [CLK]
- ASSAY_SETUP: second compound 0.1 µM; first compound 10 µM; stronger effect = lower value
Let's look at some compounds and their measured viability, T/C.
PARAMETER_MEASURED: viability, T/C (%)

[
  {
    "COMPOUND": "C=C(F)C(=O)N1CCN(c2nc(OCC3CCCN3C)nc3c2CCN(c2cccc4cccc(Cl)c24)C3)CC1CC#N (stereo not drawn) + CN1CCN(c2cc(C(=O)Nc3cc4cc(-c5cnn(C)c5)ccc4cn3)ccn2)CC1",
    "TESTED_ON": "324938-238-R-J1-PDC complex spheroids viability",
    "REPORTED": 2.19
  },
  {
    "COMPOUND": "COC1C=CCC(C)C(C)S(=O)(=O)NC(=O)c2ccc3c(c2)N(CC2CCC21)CC1(CCCc2cc(Cl)ccc21)CO3 (stereo not drawn) + CNC(=O)c1ccc(Nc2nc(OC3CCCC3)c3c(-c4ccc5nc(C)oc5c4)c[nH]c3n2)c(OC)c1",
    "TESTED_ON": "324938-238-R-J1-PDC complex spheroids viability",
    "REPORTED": 8.36
  },
  {
    "COMPOUND": "C#Cc1c(F)ccc2cc(O)cc(-c3ncc4c(N5CC6CCC(C5)N6)nc(OCC56CCCN5CC(F)C6)nc4c3F)c12 (stereo not drawn) + CN1CCN(c2cc(C(=O)Nc3cc4cc(-c5cnn(C)c5)ccc4cn3)ccn2)CC1",
    "TESTED_ON": "324938-238-R-J1-PDC complex spheroids viability",
    "REPORTED": 32.7
  }
]

* * *

- Test system: 324938-238-R-J1-PDC complex spheroids viability
- METHOD_SUMMARY: Anticancer human tumor 324938-238-R-J1-PDC cell line growth inhibition [CLK];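 note: viability read after seven days of drug exposure; 100% = DMSO vehicle control wells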
- ASSAY_SETUP: second compound 0.0316 µM; first compound 0.316 µM; stronger effect = lower value
Param label: returns Yes when viability, T/C < 30%, returns No otherwise, including exact equality.

[
  {
    "COMPOUND": "CCN1CCN(Cc2ccc(Nc3ncc(F)c(-c4cc(F)c5nc(C)n(C(C)C)c5c4)n3)nc2)CC1 + CN1CCN(c2cc(C(=O)Nc3cc4cc(-c5cnn(C)c5)ccc4cn3)ccn2)CC1",
    "ASSIGNED_LABEL": "No"
  },
  {
    "COMPOUND": "COc1c(OCCCN2CCOCC2)ccc2c3n(c(=NC(=O)c4cnc(N)nc4)nc12)CCN3 + CNC(=O)c1ccc(Nc2nc(OC3CCCC3)c3c(-c4ccc5nc(C)oc5c4)c[nH]c3n2)c(OC)c1",
    "ASSIGNED_LABEL": "Yes"
  },
  {
    "COMPOUND": "CC(=O)O[C@H]1C(=O)[C@@]2(C)[C@H]([C@H](OC(=O)c3ccccc3)[C@]3(O)C[C@H](OC(=O)[C@H](O)[C@@H](NC(=O)c4ccccc4)c4ccccc4)C(C)=C1C3(C)C)[C@]1(OC(C)=O)CO[C@@H]1C[C@@H]2O + CN1CCN(c2cc(C(=O)Nc3cc4cc(-c5cnn(C)c5)ccc4cn3)ccn2)CC1",
    "ASSIGNED_LABEL": "Yes"
  },
  {
    "COMPOUND": "C=C(F)C(=O)N1CCN(c2nc(OCC3CCCN3C)nc3c2CCN(c2cccc4cccc(Cl)c24)C3)CC1CC#N (stereo not given) + CN1CCN(c2cc(C(=O)Nc3cc4cc(-c5cnn(C)c5)ccc4cn3)ccn2)CC1",
    "ASSIGNED_LABEL": "No"
  },
  {
    "COMPOUND": "C#Cc1c(F)ccc2cc(O)cc(-c3ncc4c(N5CC6CCC(C5)N6)nc(OCC56CCCN5CC(F)C6)nc4c3F)c12 (stereo not given) + CN1CCN(c2cc(C(=O)Nc3cc4cc(-c5cnn(C)c5)ccc4cn3)ccn2)CC1",
    "ASSIGNED_LABEL": "No"
  }
]

* * *

- Tested on: 324938-238-R-J1-PDC complex spheroids viability
- METHOD_SUMMARY: Anticancer human tumor 324938-238-R-J1-PDC cell line growth inhibition [CLK];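 note: viability read after seven days of drug exposure; 100% = DMSO vehicle control wells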
- ASSAY_SETUP: second compound 0.1 µM; first compound 10 µM; stronger effect = lower value

[
  {
    "MOLECULE": "Nc1ccn(C2OC(CO)C(O)C2(F)F)c(=O)n1 (stereo not given) + CNC(=O)c1ccc(Nc2nc(OC3CCCC3)c3c(-c4ccc5nc(C)oc5c4)c[nH]c3n2)c(OC)c1",
    "viability, T/C": "7.12%"
  },
  {
    "MOLECULE": "C=CC(=O)N1CCN(c2nc(=O)n(-c3c(C)ccnc3C(C)C)c3nc(-c4c(O)cccc4F)c(F)cc23)C(C)C1 (stereo not given) + CNC(=O)c1ccc(Nc2nc(OC3CCCC3)c3c(-c4ccc5nc(C)oc5c4)c[nH]c3n2)c(OC)c1",
    "viability, T/C": "31.6%"
  },
  {
    "MOLECULE": "CCCS(=O)(=O)Nc1ccc(F)c(C(=O)c2c[nH]c3ncc(-c4ccc(Cl)cc4)cc23)c1F + CNC(=O)c1ccc(Nc2nc(OC3CCCC3)c3c(-c4ccc5nc(C)oc5c4)c[nH]c3n2)c(OC)c1",
    "viability, T/C": "33.8%"
  },
  {
    "MOLECULE": "O=c1[nH]cc(F)c(=O)[nH]1 + CNC(=O)c1ccc(Nc2nc(OC3CCCC3)c3c(-c4ccc5nc(C)oc5c4)c[nH]c3n2)c(OC)c1",
    "viability, T/C": "17.5%"
  },
  {
    "MOLECULE": "CC1COCCN1c1cc(C2(S(C)(=N)=O)CC2)nc(-c2ccnc3[nH]ccc23)n1 (stereo not given) + CN1CCN(c2cc(C(=O)Nc3cc4cc(-c5cnn(C)c5)ccc4cn3)ccn2)CC1",
    "viability, T/C": "11.5%"
  }
]

* * *

- Test system: 324938-238-R-J1-PDC complex spheroids viability
- METHOD_SUMMARY: Anticancer human tumor 324938-238-R-J1-PDC cell line growth inhibition [CLK];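 note: viability read after seven days of drug exposure; 100% = DMSO vehicle control wells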
- ASSAY_SETUP: second compound 1 µM; first compound 0.1 µM; stronger effect = lower value
Binarize viability, T/C at 9%; below is Satisfied, at or above is Not satisfied.

[
  {
    "COMPOUND": "Cn1ncnc1[C@H]1c2n[nH]c(=O)c3cc(F)cc(c23)N[C@@H]1c1ccc(F)cc1 + CN1CCN(c2cc(C(=O)Nc3cc4cc(-c5cnn(C)c5)ccc4cn3)ccn2)CC1",
    "ASSIGNED_LABEL": "Satisfied"
  },
  {
    "COMPOUND": "Nc1ccccc1NC(=O)c1ccc(CNC(=O)OCc2cccnc2)cc1 + CN1CCN(c2cc(C(=O)Nc3cc4cc(-c5cnn(C)c5)ccc4cn3)ccn2)CC1",
    "ASSIGNED_LABEL": "Satisfied"
  },
  {
    "COMPOUND": "CCN1CCN(Cc2ccc(Nc3ncc(F)c(-c4cc(F)c5nc(C)n(C(C)C)c5c4)n3)nc2)CC1 + CN1CCN(c2cc(C(=O)Nc3cc4cc(-c5cnn(C)c5)ccc4cn3)ccn2)CC1",
    "ASSIGNED_LABEL": "Satisfied"
  },
  {
    "COMPOUND": "Nc1ccn(C2OC(CO)C(O)C2(F)F)c(=O)n1 (stereo unspecified) + CNC(=O)c1ccc(Nc2nc(OC3CCCC3)c3c(-c4ccc5nc(C)oc5c4)c[nH]c3n2)c(OC)c1",
    "ASSIGNED_LABEL": "Not satisfied"
  },
  {
    "COMPOUND": "O=C(c1cc(Cc2n[nH]c(=O)c3ccccc23)ccc1F)N1CCN(C(=O)C2CC2)CC1 + CN1CCN(c2cc(C(=O)Nc3cc4cc(-c5cnn(C)c5)ccc4cn3)ccn2)CC1",
    "ASSIGNED_LABEL": "Satisfied"
  },
  {
    "COMPOUND": "CCN1CCN(Cc2ccc(Nc3ncc(F)c(-c4cc(F)c5nc(C)n(C(C)C)c5c4)n3)nc2)CC1 + CNC(=O)c1ccc(Nc2nc(OC3CCCC3)c3c(-c4ccc5nc(C)oc5c4)c[nH]c3n2)c(OC)c1",
    "ASSIGNED_LABEL": "Not satisfied"
  },
  {
    "COMPOUND": "C=C(F)C(=O)N1CCN(c2nc(OCC3CCCN3C)nc3c2CCN(c2cccc4cccc(Cl)c24)C3)CC1CC#N (stereo unspecified) + CN1CCN(c2cc(C(=O)Nc3cc4cc(-c5cnn(C)c5)ccc4cn3)ccn2)CC1",
    "ASSIGNED_LABEL": "Satisfied"
  },
  {
    "COMPOUND": "O=c1[nH]cc(F)c(=O)[nH]1 + CNC(=O)c1ccc(Nc2nc(OC3CCCC3)c3c(-c4ccc5nc(C)oc5c4)c[nH]c3n2)c(OC)c1",
    "ASSIGNED_LABEL": "Not satisfied"
  },
  {
    "COMPOUND": "Nc1ccccc1NC(=O)c1ccc(CNC(=O)OCc2cccnc2)cc1 + CNC(=O)c1ccc(Nc2nc(OC3CCCC3)c3c(-c4ccc5nc(C)oc5c4)c[nH]c3n2)c(OC)c1",
    "ASSIGNED_LABEL": "Not satisfied"
  },
  {
    "COMPOUND": "CCc1c2c(nc3ccc(O)cc13)-c1cc3c(c(=O)n1C2)COC(=O)[C@]3(O)CC + CNC(=O)c1ccc(Nc2nc(OC3CCCC3)c3c(-c4ccc5nc(C)oc5c4)c[nH]c3n2)c(OC)c1",
    "ASSIGNED_LABEL": "Satisfied"
  },
  {
    "COMPOUND": "COc1ccc([C@@H](O)c2cc(-c3ncnc4cc(N5CCOCC5)ccc34)c(F)cc2Cl)nn1 + CNC(=O)c1ccc(Nc2nc(OC3CCCC3)c3c(-c4ccc5nc(C)oc5c4)c[nH]c3n2)c(OC)c1",
    "ASSIGNED_LABEL": "Not satisfied"
  }
]
